- test_summary: Cytotoxicity of F18m in normal saline, MTT assay
- Type: cell-based
- assay_conditions: human, hnepc; EC16m in saline formulation, 60 min exposure; read-out: concentration not toxic to HNEpC
readout_kind: MNTC at 1 h

Asked: Bench note: what MNTC at 1 h did CCCCCCCCCCCCCCCC(=O)Oc1c(O)cc(C2Oc3cc(O)cc(O)c3CC2OC(=O)c2cc(O)c(O)c(O)c2)cc1O (stereo not shown) [EC16m] show?
Given back: < 280 µM
